B1: Forkhead box protein O3 (Homo sapiens), O43524 (parent)
chain: MAEAPASPAPLSPLEVELDPEFEPQSRPRSCTWPLQRPELQASPAKPSGETAADSMIPEEEDDEDDEDGGGRAGSAMAIGGGGGSGTLGSGLLLEDSARVLAPGGQDPGSGPATAAGGLSGGTQALLQPQQPLPPPQPGAAGGSGQPRKCSSRRNAWGNLSYADLITRAIESSPDKRLTLSQIYEWMVRCVPYFKDKGDSNSSAGWKNSIRHNLSLHSRFMRVQNEGTGKSSWWIINPDGGKSGKAPRRRAVSMDNSNKYTKSRGRAAKKKAALQTAPESADDSPSQLSKWPGSPTSRSSDELDAWTDFRSRTNSNASTVSGRLSPIMASTELDEVQDDDAPLSPMLYSSSASLSPSVSKPCTVELPRLTDMAGTMNLNDGLTENLMDDLLDNITLPPSQPSPTGGLMQRSSSFPYTTKGSGLGSPTSSFNSTVFGPSSLNSLRQSPMQTIQENKPATFSSMSHYGNQTLQDLLTSDSLSHSDVMMTQSDPLMSQASTAVSAQNSRRNVMLRNDPMMSFAAQPNQGSLVNQNLLHHQHQTQGALGGSRALSNSVSNMGLSESSSLGSAKHQQQSPVSQSMQTLSDSLSGSSLYSTSANLPVMGHEKFPSDLDLDMFNGSLECDMESIIRSELMDADGLDFNFDSLISTQNVVGLNVGNFTGAKQASSQSWVPG

- Variants of: B1
- condition: with akt1_human AKT1, P31749
- Sequence (P31749 whole entry): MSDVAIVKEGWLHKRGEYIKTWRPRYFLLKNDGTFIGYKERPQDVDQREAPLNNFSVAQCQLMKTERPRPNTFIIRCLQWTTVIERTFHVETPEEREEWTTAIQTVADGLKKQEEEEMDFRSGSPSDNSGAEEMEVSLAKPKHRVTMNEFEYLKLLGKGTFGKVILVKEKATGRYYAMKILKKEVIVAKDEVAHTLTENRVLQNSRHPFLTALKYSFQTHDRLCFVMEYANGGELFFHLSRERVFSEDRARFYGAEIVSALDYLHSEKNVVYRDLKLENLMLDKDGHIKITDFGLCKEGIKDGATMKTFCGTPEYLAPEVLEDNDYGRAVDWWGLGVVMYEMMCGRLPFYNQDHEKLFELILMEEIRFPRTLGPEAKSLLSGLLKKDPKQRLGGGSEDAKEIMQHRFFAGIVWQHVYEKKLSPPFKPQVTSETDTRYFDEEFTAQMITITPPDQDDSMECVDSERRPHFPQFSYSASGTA
property name: effect of a mutation on the interaction

>>> df
   mutation_name    result_value
0           P34A  with no effect
1      R27L;R29L  with no effect
